# Tested on: NCI-H23 lung
# experiment description: NCI-60 one-dose screen, 48 h (100 = growth as untreated, 0 = no growth, -100 = all killed)
# condition summary: 10 µM unless noted
About 83,000 compounds went through this panel and 20% of them were active in at least one assay; those are over-represented in the sample as a whole.
Classification field: MET = growth at or over 50%; NOT MET = growth under 50%.

Please review the following examples before continuing.
CCCCNc1nnc(-c2cc(-c3cc4ccccc4o3)nn2-c2ccccc2)o1: MET
COc1cc(NS(C)(=O)=O)ccc1Nc1c2ccc([N+](=O)[O-])cc2nc2c(C)cccc12: NOT MET
O=C(Nc1cccc(C(F)(F)F)c1)Nc1ccc(OCc2nnc(-c3ccccc3)o2)c(F)c1: NOT MET
Cc1cc(C)c(NC(=O)c2sc3nc4c(cc3c2N)CN(Cc2ccccc2)CC4)c(C)c1: MET
COc1ccc(/C=C/C(=O)c2ccc(NC(=O)CN3CCN(c4cc5c(cc4F)c(=O)c(C(=O)O)cn5C4CC4)CC3)cc2)cc1: MET
OC1CC2c3ccccc3C1c1ccccc12 (stereo unspecified): MET
O=C(CN1CCN(c2cc3c(cc2F)c(=O)c(C(=O)O)cn3C2CC2)CC1)Nc1ccc(C(=O)/C=C/c2ccccc2)cc1: NOT MET
Cc1nc2sccn2c1-c1csc(Nc2ccccc2Cl)n1: NOT MET
CCN(Cc1ccccc1)c1ccc(SC#N)cc1: MET
Nc1c(C(=O)Nc2cccc(C(F)(F)F)c2)sc2nc3c(cc12)CCCCC3: NOT MET

Exam item: API: above_or_equal(metric=growth, cutoff=50%) for item COC(=O)C(CC(=O)c1ccc(-c2ccccc2)cc1)c1ccccc1 (stereo unspecified)
Marked response: MET

Exam item: Decide: is the reported value of growth for "O=[N+]([O-])c1cccc(-c2cc(-c3cc(Br)ccc3O)[nH]n2)c1" equal to or greater than 50%?
Marked response: NOT MET

Exam item: In plain terms: is recorded growth at least 50% for "Cc1sc(N=Nc2ccc(N(C)C)cc2)[n+]([O-])c1C" ?
Marked response: MET

Exam item: Check the entry "COc1ccc(C(=O)c2cc(OC)c(OC)c(OC)c2)cc1/C=C/C(=O)c1ccc2c(c1)OCO2" : does growth equal or exceed 50%?
Marked response: NOT MET
